Target: S-adenosylmethionine decarboxylase proenzyme (Rattus norvegicus)
Sequence (P17708 whole entry): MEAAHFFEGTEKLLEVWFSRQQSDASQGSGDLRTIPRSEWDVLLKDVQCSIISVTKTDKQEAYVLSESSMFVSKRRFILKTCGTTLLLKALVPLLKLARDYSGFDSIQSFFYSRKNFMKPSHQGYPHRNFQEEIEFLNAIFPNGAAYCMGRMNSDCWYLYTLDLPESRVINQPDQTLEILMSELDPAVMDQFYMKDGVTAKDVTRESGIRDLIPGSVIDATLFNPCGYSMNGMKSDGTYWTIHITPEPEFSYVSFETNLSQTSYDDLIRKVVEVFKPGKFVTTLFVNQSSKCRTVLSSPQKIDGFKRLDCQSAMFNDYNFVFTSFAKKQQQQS
Field: IC50. Provide a value for each of the compounds that follow.
Provide the reading as a plain figure in nM.

*Q* Quickly give me recorded IC50 for C/C(=N\N=C(N)N)c1cc(C(=N)N)ccn1
*A* 5100

*Q* Quickly give me recorded IC50 for N=C(N)N/N=C1\CCc2c(C(=N)N)cccc21 [SARDOMOZIDE CHLORIDE]
*A* 5
